Attribution: ChEMBL document CHEMBL5046288

TESTED SYSTEM: Adenosine receptor A2a (Homo sapiens)
RUN DESCRIPTION: Antagonist activity at human A2aR expressed in HEK293 cells assessed as reduction in cAMP production incubated for 60 mins by ultra LANCE cAMP detection assay
Assay type: functional, cell-based
MEASUREMENT KIND: IC50 (nM)

Study these solved cases before continuing.
* Cc1ccc(-c2nc(N)nc3c2ncc(=O)n3CCN2CCN(c3ccc(F)cc3Cl)CC2)o1 | 86.5
* COc1ccc(N2CCN(CCn3c(=O)cnc4c(-c5ccc(C)o5)nc(N)nc43)[C@@H](C)C2)c(F)c1 | 8.3
* COCCOc1ccc(N2CCN(CCn3c(=O)cnc4c(-c5ccc(C)o5)nc(N)nc43)CC2)c(F)c1F | 9.3

(I) COc1ccccc1N1CCN(CCn2c(=O)cnc3c(-c4ccc(C)o4)nc(N)nc32)CC1
(II) COc1ccc(N2CCN(CCn3c(=O)cnc4c(-c5ccc(C)o5)nc(N)nc43)CC2)c(F)c1
(III) Cc1ccc(-c2nc(N)nc3c2ncc(=O)n3CCN2CCN(c3ccc(F)cc3)CC2)o1
List from greatest to least IC50. Please reply with the labels ordered as requested. Many thanks. I, III, II
(I: 3810 nM, III: 58.8 nM, II: 4.9 nM)

###

TESTED SYSTEM: Adenosine receptor A2a (Homo sapiens)
RUN DESCRIPTION: Antagonist activity at human A2aR expressed in HEK293 cells assessed as reduction in NECA-induced cAMP production incubated for 20 mins in presence of 20 nM NECA by GloSensor cAMP detection assay
Type: functional, cell-based
MEASUREMENT KIND: pIC50
Remember the convention: pIC50 equals -log10 of concentration in molar.

Supply measured pIC50 of `COc1ccc(N2CCN(CCn3c(=O)cnc4c(-c5ccc(C)o5)nc(N)nc43)[C@@H](C)C2)c(F)c1` in your reply. 8.18

###

TESTED SYSTEM: UniProtKB P29274
RUN DESCRIPTION: Antagonist activity at human A2aR expressed in HEK293 cells assessed as reduction in NECA-induced cAMP production incubated for 20 mins in presence of 40 nM NECA by ultra LANCE cAMP detection assay
Assay type: functional, cell-based
MEASUREMENT KIND: IC50 (nM)
Record the value in nM, omitting the unit from your answer.

Recall and state the measured IC50 for `COc1ccc(N2CCN(CCn3c(=O)cnc4c(-c5ccc(C)o5)nc(N)nc43)[C@@H](C)C2)c(F)c1` . 8.3

###

TESTED SYSTEM: Adenosine receptor A2a (Homo sapiens, UniProt P29274)
Sequence (P29274 whole entry): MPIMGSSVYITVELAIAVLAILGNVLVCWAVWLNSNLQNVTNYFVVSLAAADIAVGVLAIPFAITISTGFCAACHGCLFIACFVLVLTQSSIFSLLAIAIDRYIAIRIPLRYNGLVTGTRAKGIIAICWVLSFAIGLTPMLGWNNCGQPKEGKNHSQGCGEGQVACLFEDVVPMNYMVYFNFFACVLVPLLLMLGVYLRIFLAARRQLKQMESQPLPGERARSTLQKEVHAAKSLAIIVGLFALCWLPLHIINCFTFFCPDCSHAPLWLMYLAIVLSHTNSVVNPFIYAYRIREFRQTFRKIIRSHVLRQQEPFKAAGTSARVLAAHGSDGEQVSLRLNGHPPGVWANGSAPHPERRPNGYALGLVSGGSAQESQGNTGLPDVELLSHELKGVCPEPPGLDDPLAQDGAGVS
RUN DESCRIPTION: Antagonist activity at human A2aR expressed in HEK293 cells assessed as reduction in cAMP production incubated for 60 mins by ultra LANCE cAMP detection assay
Assay type: functional, cell-based
pIC50: −log10 of the molar value.
MEASUREMENT KIND: pIC50

(a) Cc1ccc(-c2nc(N)nc3c2ncc(=O)n3CCN2CCN(c3ccc(F)cc3F)CC2)o1
(b) COc1ccc(N2CCN(CCn3c(=O)cnc4c(-c5ccc(C)o5)nc(N)nc43)C[C@@H]2C)cc1
Quick one: lower pIC50, a or b ? Please identify the chosen entry by its label. b

###

TESTED SYSTEM: Adenosine receptor A2a (Homo sapiens)
RUN DESCRIPTION: Antagonist activity at human A2aR expressed in HEK293 cells assessed as reduction in cAMP production incubated for 60 mins by ultra LANCE cAMP detection assay
Format: functional, cell-based
pIC50: −log10 of the molar value.
MEASUREMENT KIND: pIC50

// worked examples, pIC50 included
• COc1ccc(N2CCCN(CCn3c(=O)cnc4c(-c5ccc(C)o5)nc(N)nc43)CC2)cc1 = 6.15
• Cc1ccc(-c2nc(N)nc3c2ncc(=O)n3CCCc2ccccc2)o1 = 6.15
• COc1ccc(N2CCN(CCn3c(=O)cnc4c(-c5ccc(C)o5)nc(N)nc43)CC2)cn1 = 7.53

(P) Cc1ccc(-c2nc(N)nc3c2ncc(=O)n3CCN2CCN(c3ccc(Oc4ccccc4)cc3)CC2)o1
(Q) Cc1ccc(-c2nc(N)nc3c2ncc(=O)n3CCN2CCN(c3ccc(OC(F)F)cc3F)CC2)o1
(R) Cc1ccc(-c2nc(N)nc3c2ncc(=O)n3CCN2CCN(c3ccc(C(F)(F)F)cc3)CC2)o1
(S) COc1cnc(N2CCN(CCn3c(=O)cnc4c(-c5ccc(C)o5)nc(N)nc43)CC2)c(F)c1
(T) Cc1ccc(-c2nc(N)nc3c2n(C)c(=O)n3Cc2ccccc2)o1
hey, can you rank those compounds up there by pIC50? biggest number first please // format: requested-order list of labels S, Q, R, P, T
(S: 8.26, Q: 7.68, R: 6.75, P: 6.22, T: 5.55)

###

TESTED SYSTEM: Adenosine receptor A2a (Homo sapiens)
RUN DESCRIPTION: Antagonist activity at human A2aR expressed in HEK293 cells assessed as reduction in cAMP production incubated for 60 mins by ultra LANCE cAMP detection assay
Assay type: functional, cell-based
pIC50: −log10 of the molar value.
# pIC50 listing for each entry below

Sample records with pIC50:
• Cc1ccc(-c2nc(N)nc3c2ncc(=O)n3CC2CCN(c3ccccc3)CC2)o1 = < 5.00
• COc1ccc(Cn2c(=O)cnc3c(-c4ccc(C)o4)nc(N)nc32)cc1 = < 5.00

Here's the next entry for you.
Determine its reported pIC50: `COc1ccc(N2C[C@@H]3C[C@H]2CN3CCn2c(=O)cnc3c(-c4ccc(C)o4)nc(N)nc32)cc1` < 5.00

###

TESTED SYSTEM: Adenosine receptor A2a (Homo sapiens)
RUN DESCRIPTION: Antagonist activity at human A2aR expressed in HEK293 cells assessed as reduction in cAMP production incubated for 60 mins by ultra LANCE cAMP detection assay
Type: functional, cell-based
pIC50: −log10 of the molar value.
pIC50 values by entry

Sample records with pIC50:
• COc1ccc(N2CCC(N(C)CCn3c(=O)cnc4c(-c5ccc(C)o5)nc(N)nc43)C2)cc1 (stereo not drawn) = < 5.00
• Cc1ccc(-c2nc(N)nc3c2ncc(=O)n3CCN2CCN(c3ccccc3OC(F)(F)F)CC2)o1 = < 5.00

Now, please, on to the next compound.
Given `Cc1ccc(-c2nc(N)nc3c2ncc(=O)n3CCN2CCN(C)CC2)o1` , respond with its pIC50. < 5.00

###

TESTED SYSTEM: Adenosine receptor A2a (Homo sapiens, UniProt P29274)
RUN DESCRIPTION: Antagonist activity at human A2aR expressed in HEK293 cells assessed as reduction in cAMP production incubated for 60 mins by ultra LANCE cAMP detection assay
Assay type: functional, cell-based
MEASUREMENT KIND: IC50

• Cc1ccc(-c2nc(N)nc3c2CCN(Cc2ccccc2)C3)o1 = > 10 µM
• Cc1ccc(-c2nc(N)nc3c2ncc(=O)n3CCN2CCN(c3cccc(OC(F)(F)F)c3)CC2)o1 = > 10 µM
• COc1ccc(N2CCN(CCn3c(=O)cnc4c(-c5ccc(C)o5)nc(N)nc43)CC2)nc1 = 0.213 µM

Consider the additional compound presented here.
In one line, give reported IC50 of the entry `Cc1ccc(-c2nc(N)nc3c2ncc(=O)n3CCN2CCN(C3CCCC3)CC2)o1` . > 10 µM
